Biological target: CXCR3 (Homo sapiens, UniProt P49682)
Sequence (P49682 whole entry): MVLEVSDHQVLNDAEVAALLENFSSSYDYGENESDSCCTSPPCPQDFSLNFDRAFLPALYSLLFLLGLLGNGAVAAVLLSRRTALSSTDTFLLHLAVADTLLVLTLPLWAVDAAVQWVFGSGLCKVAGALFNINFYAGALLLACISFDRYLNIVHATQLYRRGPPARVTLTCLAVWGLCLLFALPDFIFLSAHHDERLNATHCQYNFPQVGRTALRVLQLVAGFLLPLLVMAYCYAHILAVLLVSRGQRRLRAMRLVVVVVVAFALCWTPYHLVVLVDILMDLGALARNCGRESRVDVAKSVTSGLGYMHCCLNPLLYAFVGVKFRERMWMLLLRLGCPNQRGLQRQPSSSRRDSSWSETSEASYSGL
Experiment: CXCR3 Ca2+ mobilization (FLIPR), stable hCXCR3-CHO cell line, I-TAC stimulated
Assay type: cell-based
Set-up: host or cells: CHO cells stably expressing hCXCR3
Conditions: hCXCR3-CHO cells, I-TAC 100 nM stimulated Ca2+ response; read-out: Ca-ITAC
Property name: pIC50
Notebook: values listed as pIC50 are -log10 of the concentration (mol/L).

Recorded results for 5 compounds are shown here.
Enquiry: GET /values?readout=pIC50&item= COC(C(=O)Nc1ccc(CN(Cc2ccccn2)S(=O)(=O)c2ccc(Cl)cc2)cc1)c1ccccc1 (stereo not drawn) [Example 182]
Return: 7.40

Enquiry: GET /values?readout=pIC50&item= NC(C(=O)Nc1ccc(CN(Cc2ccccn2)S(=O)(=O)c2ccc(Cl)cc2)cc1)c1ccccc1 (stereo not drawn) [Example 181]
Return: 6.82

Enquiry: GET /values?readout=pIC50&item= CC(CCc1ccccc1)N(Cc1ccc(-c2nnn[nH]2)cc1)S(=O)(=O)c1ccc(Cl)cc1 (stereo not drawn) [Example 224]
Return: 5.82

Enquiry: GET /values?readout=pIC50&item= O=S(=O)(c1ccc(Cl)cc1)N(Cc1ccccc1)Cc1cccc(-c2nnn[nH]2)c1 [Example 234]
Return: 5.82

Enquiry: GET /values?readout=pIC50&item= N#Cc1cccc(CN(Cc2ccccc2)S(=O)(=O)c2ccc(Cl)cc2)c1 [Example 230]
Return: 5.92

New cases:
Enquiry: GET /values?readout=pIC50&item= N#Cc1ccccc1CN(Cc1ccccn1)S(=O)(=O)c1ccc(Cl)cc1 [Example 196]
Return: 4.89

Enquiry: GET /values?readout=pIC50&item= O=C(NCC1CC1)c1ccc(CN(Cc2ccccc2)S(=O)(=O)c2ccc(Cl)nc2)cc1 [Example 37]
Return: 5.47

Enquiry: GET /values?readout=pIC50&item= CCOc1ccc(S(=O)(=O)N(Cc2ccc(C(=O)N[C@H]3[C@@H]4CN(C(C)=O)C[C@@H]43)cc2)Cc2cccnc2)cc1 [Example 108]
Return: 5.74

Enquiry: GET /values?readout=pIC50&item= CCOc1ccc(S(=O)(=O)N(Cc2ccc(C(=O)NCC(C)c3ccccc3)cc2)Cc2ccccn2)cc1 (stereo not drawn) [Example 86]
Return: 5.77

Enquiry: GET /values?readout=pIC50&item= Cc1ccc(S(=O)(=O)N(Cc2ccc(-c3nnn[nH]3)cc2)Cc2ccccn2)cc1 [Example 139]
Return: 5.70
